# Assay method text: Oral fluid to blood (OF/B) concentration ratio and plasma concentration
# Condition details: human, 100 mg
Reported endpoint: Kp
Just the number, please, no unit after it.

Recorded Kp of CNC(C)Cc1ccc2c(c1)OCO2 (stereo not shown) , please.
22.4

----------
# Assay method text: Oral fluid to blood (OF/B) concentration ratio and plasma concentration
# Condition details: human, po, 100 mg
Reported endpoint: Kp
Just the number, please, no unit after it.

Recorded Kp of CNC(C)C(=O)c1ccc(C)cc1 (stereo not shown) [mephedrone, 4-methylmethcathinone] , please.
49.4

----------
# Assay method text: Oral fluid concentrations (Salivette, LC-MS/MS)
# Assay type: in vivo, humans
# Condition details: both sexes, human, methylone 100–300 mg n=8, MDMA 75–100 mg n=6, median (min–max)
Entries annotated with measured Tmax
Please format your answer as a value with the unit trailing.

Compound: CNC(C)Cc1ccc2c(c1)OCO2 (centres unmarked)
Tmax: 2 h

Recorded Tmax of CNC(C)C(=O)c1ccc2c(c1)OCO2 (centres unmarked) , please.
2 h
